Listing of entries alongside the reported EC50.
- assay.system: Muscarinic acetylcholine receptor M4 (Homo sapiens, UniProt P08173)
- Sequence (P08173 whole entry): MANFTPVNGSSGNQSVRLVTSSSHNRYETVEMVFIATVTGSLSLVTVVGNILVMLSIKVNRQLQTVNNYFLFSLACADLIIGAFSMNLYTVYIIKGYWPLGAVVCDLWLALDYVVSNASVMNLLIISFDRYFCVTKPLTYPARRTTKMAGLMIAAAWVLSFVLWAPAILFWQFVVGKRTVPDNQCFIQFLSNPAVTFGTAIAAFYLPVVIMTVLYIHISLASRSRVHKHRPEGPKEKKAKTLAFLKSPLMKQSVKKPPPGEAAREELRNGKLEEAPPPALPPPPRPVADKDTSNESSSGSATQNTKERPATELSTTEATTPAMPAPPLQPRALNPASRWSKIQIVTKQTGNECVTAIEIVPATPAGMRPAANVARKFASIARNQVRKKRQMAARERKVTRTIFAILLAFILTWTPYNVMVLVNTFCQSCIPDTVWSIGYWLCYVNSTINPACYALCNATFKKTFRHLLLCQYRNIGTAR
- run.description: Positive allosteric modulation of human muscarinic acetylcholine receptor M4 expressed in CHO-K1 cells coexpressing Galphaqi5 assessed as increase in acetylcholine-induced […] incubated for 16 to 20 hrs measured for 3.5 to 4 mins by FLIPR assay
- Format: functional, cell-based

substance.smiles	result.unit	EC50
COc1ccc(OC2CCN(c3nc4oc(=O)[nH]c(=O)c4c(Cl)c3C)CC2)cn1	µM	0.015
Cc1cc2c(nc1N1CC[C@@H](Oc3ccc4c(cnn4C)c3)[C@@H](F)C1)CNC2=O	µM	0.017
COc1ccc(OC2CCN(c3nc(CO)nc(Cl)c3C)CC2)cn1	µM	0.025
